- Study Target: T1, human SLC34A2 (human, UniProt O95436 1-690)
- T1 construct: whole, on cells; also called human solute carrier 34 A2; NaPi2b
- T1 sequence (looked up): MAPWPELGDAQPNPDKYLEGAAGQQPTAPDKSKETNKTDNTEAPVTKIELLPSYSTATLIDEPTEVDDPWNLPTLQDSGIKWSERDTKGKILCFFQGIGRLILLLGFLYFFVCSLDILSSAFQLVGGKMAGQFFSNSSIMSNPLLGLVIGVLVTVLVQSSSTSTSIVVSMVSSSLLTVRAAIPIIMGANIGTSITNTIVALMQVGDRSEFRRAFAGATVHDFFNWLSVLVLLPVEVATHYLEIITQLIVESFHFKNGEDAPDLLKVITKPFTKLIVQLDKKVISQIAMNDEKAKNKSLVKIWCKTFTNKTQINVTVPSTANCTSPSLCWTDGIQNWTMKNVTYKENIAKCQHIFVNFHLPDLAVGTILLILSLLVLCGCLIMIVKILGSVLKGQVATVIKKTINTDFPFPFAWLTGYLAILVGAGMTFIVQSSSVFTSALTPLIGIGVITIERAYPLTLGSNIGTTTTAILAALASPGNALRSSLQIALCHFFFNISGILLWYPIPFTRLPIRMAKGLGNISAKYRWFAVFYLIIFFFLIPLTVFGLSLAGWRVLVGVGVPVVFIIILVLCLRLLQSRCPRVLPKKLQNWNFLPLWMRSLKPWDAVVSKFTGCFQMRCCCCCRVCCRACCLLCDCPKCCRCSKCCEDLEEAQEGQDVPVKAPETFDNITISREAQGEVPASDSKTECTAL
- Method: FACS, OVCAR3 cells
Readout: pEC50
Here pEC50 is given on a logarithmic scale as minus log10 of the concentration in mol/L.

63A11D5B4.p1.z4 hIgG1 (antibody, V domains shown, humanized hIgG1) VH: QVQLVQSGAEVKKPGASVKVSCKASGYTFITYNMHWVRQAPGQGLEWMGAIYPGSGDTSYNQKFKGRVTMTRDTSTSTVYMELSSLRSEDTAVYYCASSTIITTGAVDYWGQGTLVTVSS VL: DIVMTQSPSSLSTSVGDRVTITCKASQDVGTAVAWYQQKPGQSPKLLIYWTSTRHTGVPDRFTGSGSGTDFTLIIRSLQPEDVATYFCQQYSRIPLTFGSGTKVEIK	7.74

Measured pEC50, 63A11D5B4.p1.z11 hIgG1 (antibody, V domains shown, humanized hIgG1) VH: QVQLVQSGAEVVKPGASVKMSCKTSGYTFITYNMHWVRQAPGQGLEWIGAIYPGSGDTSYNQKFKGRVTLTADKSTSTAYMELSSLRSEDTAVYYCSISTIITTGAVDYWGQGTLVTVSS VL: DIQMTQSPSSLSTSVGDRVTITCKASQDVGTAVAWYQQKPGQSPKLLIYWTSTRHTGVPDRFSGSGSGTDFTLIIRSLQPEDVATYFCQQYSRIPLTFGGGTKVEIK : 7.99

Measured pEC50, 63A11D5B4.p1.z6 hIgG1 (antibody, V domains shown, humanized hIgG1) VH: QVQLVQSGAEVKKPGASVKVSCKTSGYTFITYNMHWVRQAPGQGLEWIGAIYPGSGDTSYNQKFKGRVTMTADTSTSTVYMELSSLRSEDTAVYYCSISTIITTGAVDYWGQGTLVTVSS VL: DIQMTQSPSSLSTSVGDRVTITCKASQDVGTAVAWYQQKPGKSPKLLIYWTSTRHTGVPSRFSGSGSGTDFTLIISSLQPEDVATYYCQQYSRIPLTFGGGTKVEIK : 7.43
